Tested on: panel of distinct kinases excluding mutant variants, typically 359 or 386 kinases
Experiment: Kinase selectivity score S10 from competition binding panel
Details: compound at 10 μM; fraction of kinases with inhibition of 90% or greater
measured_attribute: S-Score: S(10) at 10 μM

The examples below pair each entry with its known result.
>  <compound>
Cc1cc(Nc2nc([S+]([O-])c3ccc(F)cc3)cc3ccccc23)n[nH]1 (centres unmarked)

>  <endpoint_value>
D (D > 0.5)

$$$$
>  <compound>
Cc1cc(Nc2nc(S(=O)(=O)c3ccc(F)cc3)cc3c(Br)cccc23)n[nH]1

>  <endpoint_value>
A (A ≦ 0.3)

$$$$
>  <compound>
Cc1cc(Nc2nc(S(=O)(=O)c3ccc(F)cc3)cc3ccccc23)n[nH]1

>  <endpoint_value>
D (D > 0.5)

$$$$
>  <compound>
Cc1cc(Nc2nc(C(=O)c3ccc(F)cc3)cc3ccccc23)n[nH]1

>  <endpoint_value>
A (A ≦ 0.3)

$$$$
>  <compound>
COc1cc(Nc2nc(S(=O)(=O)c3ccc(F)cc3)cc3ccccc23)n[nH]1

>  <endpoint_value>
D (D > 0.5)

$$$$

With those in mind, consider the next compound.
**Query** Any idea what S-Score: S(10) at 10 μM was measured for `O=S(=O)(c1ccc(F)cc1)c1cc2ccccc2c(Nc2nccs2)n1` ?
**Result** A (A ≦ 0.3)
